TARGET OF ASSAY: Proton Pump (H^+/K^+-ATPase) (Sus scrofa, UniProt P19156)
Sequence (P19156 2-1034 limits assumed): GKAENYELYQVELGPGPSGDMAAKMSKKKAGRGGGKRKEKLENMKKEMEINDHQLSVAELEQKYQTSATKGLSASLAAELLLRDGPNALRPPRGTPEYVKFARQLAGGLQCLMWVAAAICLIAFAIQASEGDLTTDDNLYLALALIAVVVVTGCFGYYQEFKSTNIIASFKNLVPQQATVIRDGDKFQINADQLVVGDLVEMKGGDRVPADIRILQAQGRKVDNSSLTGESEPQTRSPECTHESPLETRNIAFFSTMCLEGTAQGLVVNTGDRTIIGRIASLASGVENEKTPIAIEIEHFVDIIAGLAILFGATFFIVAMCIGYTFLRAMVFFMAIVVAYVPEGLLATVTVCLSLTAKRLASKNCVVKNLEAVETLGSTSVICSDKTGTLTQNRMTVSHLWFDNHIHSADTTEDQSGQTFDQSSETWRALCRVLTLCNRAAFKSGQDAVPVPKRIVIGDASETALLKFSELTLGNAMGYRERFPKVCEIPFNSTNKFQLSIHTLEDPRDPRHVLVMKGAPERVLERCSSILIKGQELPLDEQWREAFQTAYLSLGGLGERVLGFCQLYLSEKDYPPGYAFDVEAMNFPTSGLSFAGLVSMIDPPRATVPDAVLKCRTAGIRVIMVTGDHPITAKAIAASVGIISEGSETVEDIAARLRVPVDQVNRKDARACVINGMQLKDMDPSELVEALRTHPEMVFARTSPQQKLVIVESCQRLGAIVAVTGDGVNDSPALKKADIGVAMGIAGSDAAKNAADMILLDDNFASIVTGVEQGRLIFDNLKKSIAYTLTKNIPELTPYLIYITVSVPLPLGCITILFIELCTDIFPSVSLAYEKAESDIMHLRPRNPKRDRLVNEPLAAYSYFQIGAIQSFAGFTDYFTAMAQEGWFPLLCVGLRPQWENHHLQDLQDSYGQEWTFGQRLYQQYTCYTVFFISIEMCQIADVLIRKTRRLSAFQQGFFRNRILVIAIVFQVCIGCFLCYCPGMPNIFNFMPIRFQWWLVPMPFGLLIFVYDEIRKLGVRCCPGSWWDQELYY
Sequence (P18434 whole entry partner): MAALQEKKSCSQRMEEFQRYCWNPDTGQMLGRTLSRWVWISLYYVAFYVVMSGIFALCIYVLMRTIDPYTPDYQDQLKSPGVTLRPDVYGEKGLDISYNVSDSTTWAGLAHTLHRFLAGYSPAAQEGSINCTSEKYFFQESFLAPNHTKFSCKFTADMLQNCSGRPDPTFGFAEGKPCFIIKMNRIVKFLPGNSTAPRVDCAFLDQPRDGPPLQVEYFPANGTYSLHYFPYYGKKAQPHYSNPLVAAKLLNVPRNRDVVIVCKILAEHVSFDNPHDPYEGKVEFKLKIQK
ASSAY: Inhibitory effects on proton pump (H^+/K^+-ATPase) activity
EXPERIMENTAL SETUP: hog gastric vesicles; K^+ stimulated H^+/K^+-ATPase activity; 30 minutes at 37° C.
Structures can show the parent of a compound that is named as a salt.
MEASURED PARAMETER: IC50 (µM)

Past entries and their recorded results:
Challenge: Quick one: IC50 for C=CCn1c(C)c(C)c2ccnc(N3CCc4ccccc4C3)c21 [Example 485, citrate] ?
Response given: 0.006

Challenge: Quick one: IC50 for COCCn1c(C)c(C)c2ccnc(-c3ccc(SC)cc3)c21 [Example 264, hydrochloride] ?
Response given: 0.49

Challenge: Quick one: IC50 for Cc1ccc(-c2nccc3c(C)c(C)n(CC4CCC4)c23)cc1 [Example 289, hydrochloride] ?
Response given: 1.34

Challenge: Quick one: IC50 for Cc1c(C)n(Cc2cccc(Cl)c2)c2c(N3CCc4ccccc4C3)nc(C(=O)O)cc12 ?
Response given: 0.054

Challenge: Quick one: IC50 for CCCn1c(C)c(C)c2ccnc(NCc3ccc(C)cc3)c21 [Example 205, hydrochloride] ?
Response given: 0.33

Challenge: Quick one: IC50 for Cc1nc(Cn2c(C)c(C)c3ccnc(N4CCc5ccc(F)cc5C4C)c32)cs1 (centres unmarked) [Example 551, hydrochloride] ?
Response given: 0.32

[1] C=CCn1c(C)c(C)c2cc(C(=O)NCC(F)(F)F)nc(N3CCc4ccccc4C3)c21
[2] Cc1[nH]c2c(-c3ccc4ccccc4c3)nccc2c1C [Example 410, sodium]
Challenge: Select one: 1 or 2 . Criterion: greater recorded IC50. // respond with label for picked entry
Response given: 1
(1: 0.35 µM, 2: 0.099 µM)

====

TARGET OF ASSAY: Proton Pump (H^+/K^+-ATPase) (Sus scrofa)
ASSAY: Inhibitory effects on proton pump (H^+/K^+-ATPase) activity
Assay type: biochemical
EXPERIMENTAL SETUP: hog gastric vesicles; K^+ stimulated H^+/K^+-ATPase activity; 30 minutes at 37° C.
Counter-ions that a name gives are not always drawn.
MEASURED PARAMETER: IC50 (nM)

Challenge: Quick one: IC50 for COCCn1c(C)c(C)c2ccnc(N3CCc4ccccc4C3C3CC3)c21 (stereo not drawn) [Example 571, hydrochloride] ?
Response given: 470

Challenge: Quick one: IC50 for Cc1c(C)n(CC2CC2)c2c(N3CCc4ccccc4C3)nc(C(=O)O)cc12 [Example 740] ?
Response given: 267

Challenge: Quick one: IC50 for C#CCn1c(C)c(C)c2ccnc(-c3ccc(OC)cc3)c21 [Example 354, hydrochloride] ?
Response given: 150

[a] Cc1c(C)n(Cc2ccccc2)c2c(N3CCc4ccc(F)cc4C3C)nccc12 (stereo not drawn) [Example 547, hydrochloride]
[b] COc1ccc(Cn2c(C)c(C)c3ccnc(N4CCc5ccccc5C4C)c32)cc1 (stereo not drawn) [Example 558, hydrochloride]
Challenge: Select one: a or b . Criterion: greater recorded IC50. // respond with label for picked entry
Response given: b
(b: 430 nM, a: 130 nM)

====

TARGET OF ASSAY: Proton Pump (H^+/K^+-ATPase) (Sus scrofa, UniProt P19156)
ASSAY: Inhibitory effects on proton pump (H^+/K^+-ATPase) activity
EXPERIMENTAL SETUP: hog gastric vesicles; K^+ stimulated H^+/K^+-ATPase activity; 30 minutes at 37° C.
pIC50: −log10 of the molar value. Structures can show the parent of a compound that is named as a salt.
MEASURED PARAMETER: pIC50

Past entries and their recorded results:
Challenge: Quick one: pIC50 for Cc1c(C)n(Cc2ccc(C(C)(C)C)cc2)c2c(-c3ccc4ccccc4c3)nccc12 [Example 406, hydrochloride] ?
Response given: 6.72

Challenge: Quick one: pIC50 for CSc1ccc(-c2nccc3c(C)c(C)n(Cc4ccccc4F)c23)cc1 [Example 275, hydrochloride] ?
Response given: 6.44

Challenge: Quick one: pIC50 for CCn1c(C)c(C)c2cc(C(=O)N3CC=CCC3)nc(N3CCc4ccccc4C3)c21 [Example 809, hydrochloride] ?
Response given: 7.23

Challenge: Quick one: pIC50 for Cc1c(C)n(Cc2ccccc2)c2c(CN(C)c3ccc(F)cc3)nccc12 [Example 111, hydrochloride] ?
Response given: 7.60

Challenge: Quick one: pIC50 for COc1cccc(Cn2c(C)c(C)c3cc(C(=O)N4CCSCC4)nc(N4CCc5ccccc5C4)c32)c1 [Example 784, hydrochloride] ?
Response given: 6.69

[a] Cc1[nH]c2c(-c3ccc(F)cc3)nccc2c1C [Example 325, hydrochloride]
[b] Cc1ccccc1CNc1nccc2c(C)c(C)n(Cc3ccccc3)c12 [Example 216, hydrochloride]
Challenge: Please indicate which has the smaller reported pIC50: a , or b . // respond with label for picked entry
Response given: a
(a: 5.70, b: 6.59)
